src = patent US10725042B2

# System: H1975 66 shUNG cells
# assaySummary: Colony survival assay, H1975 66 shUNG cells
# Format: cell-based, human
# appliedConditions: Homo sapiens, NCI-H1975; H1975 66 shUNG, colony survival; read-out: pemetrexed IC50
assayEndpoint: IC50
Please format your answer as a value with the unit trailing.

Form field: IC50 recorded for Nc1nc2[nH]cc(CCc3ccc(C(=O)N[C@@H](CCC(=O)O)C(=O)O)cc3)c2c(=O)[nH]1 with H1975 66 shUNG cells (enter value)
131 nM

====

# System: A549 parental cells
# assaySummary: Colony survival assay, A549 parental cells (Example 2)
# Assay type: cell-based
# appliedConditions: Homo sapiens, read-out: pemetrexed IC50
assayEndpoint: IC50 (nM)
Answers are plain numbers, in nM.

What value of IC50 has been recorded for this entry: Nc1nc2[nH]cc(CCc3ccc(C(=O)N[C@@H](CCC(=O)O)C(=O)O)cc3)c2c(=O)[nH]1 [pemetrexed]
416

====

# Tested on: H1975 67 shUNG cells
# assaySummary: Colony survival assay, H1975 67 shUNG cells
# Assay type: cell-based
# appliedConditions: Homo sapiens, NCI-H1975, read-out: pemetrexed IC50
assayEndpoint: pIC50
Give bare numbers, as −log10 of the molar value.

What value of pIC50 has been recorded for this entry: Nc1nc2[nH]cc(CCc3ccc(C(=O)N[C@@H](CCC(=O)O)C(=O)O)cc3)c2c(=O)[nH]1
6.84
